Field: Emax. Provide a value for each of the molecules that follow.
subject.of.test: Delta-type opioid receptor (Homo sapiens, UniProt P41143)
Sequence (P41143 whole entry): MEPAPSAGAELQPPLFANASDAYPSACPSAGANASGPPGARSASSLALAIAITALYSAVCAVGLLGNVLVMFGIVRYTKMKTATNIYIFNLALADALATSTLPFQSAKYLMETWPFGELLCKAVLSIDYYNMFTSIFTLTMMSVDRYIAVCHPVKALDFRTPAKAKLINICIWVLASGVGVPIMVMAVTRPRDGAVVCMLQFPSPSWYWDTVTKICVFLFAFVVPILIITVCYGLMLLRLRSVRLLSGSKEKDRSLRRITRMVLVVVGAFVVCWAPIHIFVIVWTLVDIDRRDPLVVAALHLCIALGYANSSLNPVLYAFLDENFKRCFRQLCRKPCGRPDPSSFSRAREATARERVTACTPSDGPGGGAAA
method.summary: Agonist activity at human DOR stably expressed in CHO cell membranes assessed as stimulation of [35S]-GTPgammaS binding incubated for 1 hr by liquid scintillation counting assay relative to DPDPE
Format: functional
measurement.setup: filed as agonist, time 60.0 min
Numbered stars: 1 amine (or outer) side, 2 acyl side, 3 side chain; on linkers, the order of the positions; unused ones are H or OH. Square brackets hold non-standard residues; d marks the D form. Peptide text beside a SMILES is read from it. X1 = O=C1[C@@H](N[*:1])Cc2ccccc2CN1CCC(=O)[*:2]; X2 = O=C([C@@H]1Cc2cc(O)ccc2CN1[*:1])[*:2]; Dmt = Cc1cc(O)cc(C)c1C[C@H](N)C(=O)O; mTyr = N[C@@H](Cc1cccc(O)c1)C(=O)O; β3hR = N=C(N)NCCC[C@H](N)CC(=O)O; Tle = CC(C)(C)[C@H](N)C(=O)O
Give bare numbers, in %.

molecule	subject.of.test	Emax (%)
Cc1cc(O)cc(C)c1C[C@H](N)C(=O)N[C@H](CCCNC(=N)N)C(=O)N[C@H]1Cc2ccccc2CN(CCC(N)=O)C1=O	Delta-type opioid receptor (Homo sapiens, UniProt P41143)	104

List the reported Emax of each molecule below.
1. Cc1cc(O)cc(C)c1C[C@H](NC(=O)[C@@H]1CCCN1C(=O)[C@H](CCCCN)NC(=O)[C@H](CCCCN)NC(=O)CCN1Cc2ccccc2C[C@H](NC(=O)[C@@H](CCCNC(=N)N)NC(=O)[C@@H](N)Cc2c(C)cc(O)cc2C)C1=O)C(=O)N[C@H](C(=O)N[C@@H](CC(C)C)C(=O)O)C(C)(C)C (H-[Dmt][dR][X1]KKP[Dmt][Tle]L-OH)
2. Cc1cc(O)cc(C)c1C[C@H](N)C(=O)N[C@H](CCCNC(=N)N)C(=O)N[C@H]1Cc2ccccc2CN(CCC(=O)N[C@@H](CCCCN)C(=O)N[C@@H](CCCCN)C(=O)N2CCC[C@H]2C(=O)N[C@@H](Cc2cccc(O)c2)C(=O)N[C@H](C(=O)N[C@@H](CC(C)C)C(=O)O)C(C)(C)C)C1=O (H-[Dmt][dR][X1]KKP[mTyr][Tle]L-OH)
3. Cc1cc(O)cc(C)c1C[C@H](NC(=O)[C@@H]1CCCN1C(=O)[C@H](CCCNC(=N)N)NC(=O)C[C@H](CCCNC(=N)N)NC(=O)CCN1Cc2ccccc2C[C@H](NC(=O)[C@@H](CCCNC(=N)N)NC(=O)[C@@H](N)Cc2c(C)cc(O)cc2C)C1=O)C(=O)N[C@H](C(=O)N[C@@H](CC(C)C)C(=O)O)C(C)(C)C (H-[Dmt][dR][X1][β3hR]RP[Dmt][Tle]L-OH)
4. Cc1cc(O)cc(C)c1C[C@H](N)C(=O)N[C@H](CCCNC(=N)N)C(=O)N[C@H]1Cc2ccccc2CN(CCC(=O)N[C@@H](CCCNC(=N)N)C(=O)N[C@@H](CCCNC(=N)N)C(=O)N2CCC[C@H]2C(=O)N2Cc3ccc(O)cc3C[C@H]2C(=O)N[C@H](C(=O)N[C@@H](CC(C)C)C(=O)O)C(C)(C)C)C1=O (H-[Dmt][dR][X1]RRP[X2][Tle]L-OH)

60
90
99
97
